study_target: human TGR5 (Homo sapiens)
protocol_notes: cAMP production assay in HEK293 cells stably expressing TGR5 (LANCE TR-FRET)
condition_description: 30 minutes stimulation, read-out: cAMP Production in 293-TGR5 Cells EC50
quantity_kind: EC50

A selection of reference data follows.
item_smiles | EC50
Cc1cc(-c2nc3ccccc3c(=O)n2NCc2ccc(Cl)cc2)ccc1F | ≤ 10 µM
O=c1c2ccccc2nc(-c2ccccc2)n1NCc1ccccc1 | ≤ 10 µM
O=c1c2cccc(O)c2nc(-c2ccc(F)cc2)n1NCc1ccc(Br)cc1 | ≤ 10 µM
O=c1c2ccccc2nc(-c2cccc(OC(F)(F)F)c2)n1NCc1ccc(Br)cc1 | ≤ 10 µM

Prompt: Form field: reported EC50 of Cc1ccc(CNn2c(-c3ccccc3F)nc3ccccc3c2=O)cc1
Response: ≤ 10 µM

Prompt: Could you tell me which EC50 is on file for O=c1c2cccc(O)c2nc(-c2ccc(F)cc2)n1NCc1ccc(Cl)cc1 ?
Response: ≤ 10 µM

* * *

study_target: human TGR5 (Homo sapiens, UniProt Q8TDU6)
Sequence (Q8TDU6 whole entry): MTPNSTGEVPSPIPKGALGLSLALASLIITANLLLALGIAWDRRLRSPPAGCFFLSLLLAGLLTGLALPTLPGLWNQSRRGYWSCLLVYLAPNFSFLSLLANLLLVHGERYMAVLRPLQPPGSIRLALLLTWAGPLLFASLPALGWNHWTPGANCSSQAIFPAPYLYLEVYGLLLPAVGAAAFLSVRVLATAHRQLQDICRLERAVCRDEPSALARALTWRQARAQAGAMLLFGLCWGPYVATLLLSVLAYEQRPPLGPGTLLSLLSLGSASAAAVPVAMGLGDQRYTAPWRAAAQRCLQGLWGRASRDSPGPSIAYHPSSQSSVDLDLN
protocol_notes: cAMP production assay in HEK293 cells stably expressing TGR5 (LANCE TR-FRET)
condition_description: 30 minutes stimulation, read-out: cAMP Production in 293-TGR5 Cells EC50
# EC50 per entry

compound | study_target | EC50
Cc1cccc2c(=O)n(NCc3ccc(Br)cc3)c(-c3ccc(F)cc3)nc12 [Example 70] | human TGR5 (Homo sapiens, UniProt Q8TDU6) | ≤ 10 µM

Prompt: Bench note: what EC50 did O=c1c2ccccc2nc(-c2cccc(F)c2)n1NCc1ccc(Br)cc1 [Example 105] show?
Response: ≤ 10 µM

Prompt: // lookup EC50 for O=c1c2ccc(C(F)(F)F)cc2nc(-c2ccccc2F)n1NCc1ccc(Cl)cc1 [Example 30]
Response: > 10 µM

Prompt: Which EC50 is reported for this compound? COc1ccc(-c2nc3ccccc3c(=O)n2NCc2ccc(Cl)cc2)cc1OC [Example 62]
Response: > 10 µM

Prompt: Find the recorded EC50 belonging to Cc1cc(-c2nc3ccccc3c(=O)n2NCc2ccc(Br)cc2)ccc1F [Example 54] and report it.
Response: ≤ 10 µM

Prompt: Name the recorded EC50 for Cc1ccc(-c2nc3ccccc3c(=O)n2NCc2ccc(Cl)cc2)cc1Cl [Example 110] .
Response: ≤ 10 µM

Prompt: # lookup: EC50 of Cc1ccc(-c2nc3ccccc3c(=O)n2NCc2ccc(Br)cc2)cc1Cl [Example 109]
Response: ≤ 10 µM

* * *

study_target: human TGR5 (Homo sapiens)
protocol_notes: cAMP production assay in HEK293 cells stably expressing TGR5 (LANCE TR-FRET)
condition_description: 30 minutes stimulation, read-out: cAMP Production in 293-TGR5 Cells EC50
pEC50: −log10 of the molar value.
quantity_kind: pEC50

item_smiles | reported
O=c1c2ccccc2nc(-c2cccs2)n1NCc1ccc(Br)cc1 | ≥ 5.00
CN(C)c1ccc(-c2nc3ccccc3c(=O)n2NCc2ccc(Br)cc2)cc1 | < 5.00
O=c1c2ccccc2nc(-c2ccc(F)cc2)n1NCCc1cccc(Br)c1 | < 5.00

Prompt: Fill in: pEC50 of COc1cccc(-c2nc3ccccc3c(=O)n2NCc2ccc(Br)cc2)c1 is ___
Response: ≥ 5.00

Prompt: So what's the measured pEC50 for this one? CCN(Cc1ccc(Br)cc1)n1c(-c2ccc(F)cc2)nc2ccccc2c1=O
Response: ≥ 5.00

Prompt: Please look up its pEC50: O=c1c2ccccc2nc(-c2ccco2)n1N(Cc1ccc(Br)cc1)Cc1ccc(Br)cc1
Response: ≥ 5.00

Prompt: Can you share its pEC50? I mean this compound: O=c1c2ccccc2nc(C2CCCCC2)n1NCc1ccc(Br)cc1
Response: ≥ 5.00

Prompt: Consider the compound O=c1c2ccc(F)cc2nc(-c2ccc(F)cc2)n1NCc1ccc(Cl)cc1 and give its measured pEC50.
Response: ≥ 5.00

Prompt: Please give the measured pEC50 for this compound: O=c1c2ccccc2nc(-c2ccccc2F)n1NCc1cccc(Cl)c1
Response: ≥ 5.00
